Cited source: PubChem BioAssay (EPA / NIEHS)

assay.method.text: BSK_hDFCGF_SRB: Viability Assessment in the BioMAP Diversity Plus: hDFCGF Assay (AID 2283061);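 also: cells exposed to compound for 24 h before the read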
measurement.conditions: primary human foreskin fibroblasts
Calls of active or inactive are those of the source. The calls were made as follows: active = hit-call score of the fitted dose curve at least 0.9, where 1 is the maximum; inactive = score below 0.9.
recorded.metric: AC50

// below: answered compounds
compound	AC50
c1ccc(Nc2ccccc2)cc1	inactive
c1ccc2[nH]c(-c3cscn3)nc2c1	inactive
CCC(O)=C1C(=O)CC(C(=O)O)CC1=O (stereo unspecified)	inactive
COC(=O)c1cccc(C)c1S(=O)(=O)NC(=O)Nc1nc(OCC(F)(F)F)nc(N(C)C)n1	inactive
N[C@@H](Cc1cc(I)c(Oc2ccc(O)c(I)c2)c(I)c1)C(=O)O	inactive

Look up AC50 for this compound: CCCOC(=O)c1ccc(C(=O)OCCC)nc1 inactive

// next record CC(=O)S[C@@H]1CC2=CC(=O)CC[C@]2(C)[C@H]2CC[C@@]3(C)[C@@H](CC[C@@]34CCC(=O)O4)[C@H]12 26.7 µM (active)

Continue with COC(=O)c1ccc(I)cc1S(=O)(=O)NC(=O)Nc1nc(C)nc(OC)n1 inactive

Moving on to the next compound: Cc1nn(C)c(Oc2ccccc2)c1C=NOCc1ccc(C(=O)OC(C)(C)C)cc1 15.4 µM (active)

Please do the same for CC(C)CCCCCCc1ccc(O)cc1 as well. 10.2 µM (active)

Okay, and CCN(Cc1c(F)cccc1Cl)c1c([N+](=O)[O-])cc(C(F)(F)F)cc1[N+](=O)[O-] ? inactive
